# Tested on: Flea (Ctenocephalides felis)
# method: Flea (Ctenocephalides felis) Membrane Feed Assay-Adult
# Format: in vivo
# recorded conditions: adult fleas fed on treated citrated bovine blood for 24 hours, lowest dose to cause mortality ≧50%, half-log intervals, read-out: Minimum Effective Concentration (MEC)
Where a name gives a salt, the structure may show the parent alone.
Please provide measured minimal effective concentration for the entries that follow.

Record minimal effective concentration for all entries; do not skip any.
1. CS(=O)(=O)CC(=O)N1CC2(C1)OCc1cc(N3CCC(c4cc(Cl)c(F)c(Cl)c4)(C(F)(F)F)C3)ccc12 (stereo not shown)
2. CS(=O)(=O)CC(=O)N1CC2(C1)OCc1cc(C3=NCC(c4cc(Cl)c(Cl)c(Cl)c4)(C(F)(F)F)C3)ccc12 (stereo not shown)
3. CC(C)C(=O)N1CC2(C1)OCc1cc(N3CCC(c4cc(Cl)c(Cl)c(Cl)c4)(C(F)(F)F)C3)ccc12 (stereo not shown)
4. CC(C)C(=O)N1CC2(C1)OCc1cc(C3=NNC(c4cc(Cl)cc(Cl)c4)(C(F)(F)F)C3)ccc12 (stereo not shown) [Example 19, hydrochloride]
5. CC(C)C(=O)N1CC2(C1)OCc1cc(C3=NCC(c4cc(Cl)cc(Cl)c4)(C(F)(F)F)C3)ccc12 (stereo not shown)

Reply:
1: ≥ 3 µM; 2: 0.3 µM; 3: ≥ 3 µM; 4: ≥ 3 µM; 5: 1 µM

Record minimal effective concentration for all entries; do not skip any.
1. CS(=O)(=O)CC(=O)N1CC2(C1)OCc1cc(N3CCC(c4cc(Cl)c(Cl)c(Cl)c4)(C(F)(F)F)C3)ccc12 (stereo not shown)
2. CC(C)C(=O)N1CC2(C1)OCc1cc(N3CCC(c4cc(Cl)cc(Cl)c4)(C(F)(F)F)C3)ccc12 (stereo not shown)
3. CS(=O)(=O)CC(=O)N1CC2(C1)OCc1cc(C3=NOC(c4cc(Cl)cc(Cl)c4)(C(F)(F)F)O3)ccc12 (stereo not shown)
4. CC(C)C(=O)N1CC2(C1)OCc1cc(N3CCC(c4cc(Cl)c(F)c(Cl)c4)(C(F)(F)F)C3)ccc12 (stereo not shown)
5. CC(C)C(=O)N1CC2(C1)OCc1cc(C3=NN(C)C(c4cc(Cl)c(F)c(Cl)c4)(C(F)(F)F)C3)ccc12 (stereo not shown)
6. CC(C)C(=O)N1CC2(C1)OCc1cc(C3=NOC(c4cc(Cl)c(Cl)c(Cl)c4)(C(F)(F)F)O3)ccc12 (stereo not shown)
7. CS(=O)(=O)CC(=O)N1CC2(C1)OCc1cc(C3=NNC(c4cc(Cl)c(Cl)c(Cl)c4)(C(F)(F)F)C3)ccc12 (stereo not shown) [Example 18, hydrochloride]

Reply:
1. ≥ 3 µM
2. ≥ 3 µM
3. ≥ 3 µM
4. ≥ 3 µM
5. 1 µM
6. ≥ 3 µM
7. ≥ 3 µM

Record minimal effective concentration for all entries; do not skip any.
1. CS(=O)(=O)CC(=O)N1CC2(C1)OCc1cc(C3=NNC(c4cc(Cl)c(F)c(Cl)c4)(C(F)(F)F)C3)ccc12 (stereo not shown)
2. CS(=O)(=O)CC(=O)N1CC2(C1)OCc1cc(C3=NNC(c4cc(Cl)cc(Cl)c4)(C(F)(F)F)C3)ccc12 (stereo not shown)
3. CC(C)C(=O)N1CC2(C1)OCc1cc(C3=NNC(c4cc(Cl)c(Cl)c(Cl)c4)(C(F)(F)F)C3)ccc12 (stereo not shown)
4. CS(=O)(=O)CC(=O)N1CC2(C1)OCc1cc(C3=NOC(c4cc(Cl)c(F)c(Cl)c4)(C(F)(F)F)O3)ccc12 (stereo not shown)

Reply:
1. ≥ 3 µM
2. ≥ 3 µM
3. ≥ 3 µM
4. ≥ 3 µM

Record minimal effective concentration for all entries; do not skip any.
1. CS(=O)(=O)CC(=O)N1CC2(C1)OCc1cc(C3=NOC(c4cc(Cl)c(Cl)c(Cl)c4)(C(F)(F)F)O3)ccc12 (stereo not shown)
2. CC(C)C(=O)N1CC2(C1)OCc1cc(C3=NOC(c4cc(Cl)cc(Cl)c4)(C(F)(F)F)O3)ccc12 (stereo not shown)
3. CS(=O)(=O)CC(=O)N1CC2(C1)OCc1cc(C3=NCC(c4cc(Cl)cc(Cl)c4)(C(F)(F)F)C3)ccc12 (stereo not shown)
4. CC(C)C(=O)N1CC2(C1)OCc1cc(C3=NNC(c4cc(Cl)c(F)c(Cl)c4)(C(F)(F)F)C3)ccc12 (stereo not shown)
5. CN1N=C(c2ccc3c(c2)COC32CN(C(=O)CS(C)(=O)=O)C2)CC1(c1cc(Cl)c(F)c(Cl)c1)C(F)(F)F (stereo not shown)

Reply:
1. ≥ 3 µM
2. ≥ 3 µM
3. 0.3 µM
4. ≥ 3 µM
5. ≥ 3 µM

Ask: Return reported minimal effective concentration; argument: CC(C)C(=O)N1CC2(C1)OCc1cc(C3=NOC(c4cc(Cl)c(F)c(Cl)c4)(C(F)(F)F)O3)ccc12 (stereo not shown)
Reply: ≥ 3 µM
